# inhibition at 1 µM listing for each entry below
system: ICAM-1; test: CAM ELISA: ICAM-1 expression on TNF-stimulated HUVECs; format: cell-based; conditions: Homo sapiens, Endothelial cell, 1 μM compound; primary human umbilical vein endothelial cells; compound 24 hours, then TNF 5 ng/mL 6 hours

MOLECULE_SMILES	inhibition at 1 µM, %
NS(=O)(=O)c1cc2c(Oc3ccc(Cl)cc3)cncc2s1	72
CCOC(=O)c1cccc(Oc2cncc3sc(C(N)=O)cc23)c1	63
CCOCCOCCOCC1(c2ccc(Oc3cncc4sc(-c5nnc(N)o5)cc34)cc2)CC1	68
Cc1ccc(Sc2ncnc3c(C)c(C(N)=O)sc23)cc1	32
Nc1nnc(-c2cc3c(Oc4ccc(Br)cc4)cncc3s2)o1	61
CC(C)(C)OC(=O)Nc1csc(-c2cc3c(Oc4ccc(Cl)cc4)cncc3s2)n1	45
NC(=O)c1cc2c(Oc3ccc(Br)cc3)cnc(Cl)c2s1	68
CNC(=O)c1cc2c(Oc3ccc(-n4cncn4)cc3)cncc2s1	68

----------
Measured melting point, listed per entry.
REPORTED_METRIC: melting point

MOLECULE	MEAS_VALUE
Cc1cccc(Sc2cncc3sc(C(N)=O)cc23)c1	171 to 173 °C
CNC(=O)c1cc2c(Oc3cccc(F)c3)cncc2s1	194 to 195 °C
Cc1ccc(Sc2ccnc3sc(C(N)=O)cc23)cc1 [Example 132D]	280 to 282 °C
Cc1ccc(Sc2cncc3sc(C=NOCC(=O)O)cc23)cc1	227 to 230 °C
Cc1ccc(Sc2cncc3sccc23)cc1	94 to 95 °C
NC(=O)NCc1cc2c(Oc3ccc(Cl)cc3)cncc2s1	202 to 204 °C
CN(C)C(=O)c1cc2c(Oc3ccc(Br)cc3)cncc2s1	93 to 95 °C
